- target-or-system: UniProt:P15289
- Sequence (P15289 whole entry): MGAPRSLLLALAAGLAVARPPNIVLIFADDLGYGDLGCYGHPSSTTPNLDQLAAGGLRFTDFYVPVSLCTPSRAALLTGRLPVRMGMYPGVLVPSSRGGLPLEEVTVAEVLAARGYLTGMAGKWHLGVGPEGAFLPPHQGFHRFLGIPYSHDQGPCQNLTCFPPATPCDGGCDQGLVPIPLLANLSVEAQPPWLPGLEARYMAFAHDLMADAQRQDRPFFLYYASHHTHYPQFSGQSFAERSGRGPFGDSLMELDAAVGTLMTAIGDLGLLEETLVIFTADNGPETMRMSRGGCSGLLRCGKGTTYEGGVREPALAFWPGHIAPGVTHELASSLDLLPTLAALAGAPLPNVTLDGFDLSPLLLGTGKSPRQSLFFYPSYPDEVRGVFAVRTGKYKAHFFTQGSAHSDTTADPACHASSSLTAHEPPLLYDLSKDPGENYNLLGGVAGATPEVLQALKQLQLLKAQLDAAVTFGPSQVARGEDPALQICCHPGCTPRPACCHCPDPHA

{"columns": ["line-notation", "target-or-system", "IC50, µM"],
 "data": [
  ["O=C1C=CC(=O)c2c1ccc1c2c(=O)oc2c3ccccc3ccc12", "UniProt:P15289", 13.2]
]}

* * *

- Test system: PANC-1
- run-description: Antitumor activity against human PANC-1 cells assessed as reduction in cell viability and incubated for 3 hrs by MTT assay
- Assay type: functional, cell-based
- test-conditions: PANC-1, 3 h
pIC50: −log10 of the molar value.
measured-metric: pIC50

{"columns": ["line-notation", "measurement"],
 "data": [
  ["CC(=O)c1ccccc1NC1=CC(=O)c2ncncc2C1=O", 5.66]
]}

* * *

- target-or-system: Cholinesterase (Homo sapiens, UniProt P06276)
- Sequence (P06276 whole entry): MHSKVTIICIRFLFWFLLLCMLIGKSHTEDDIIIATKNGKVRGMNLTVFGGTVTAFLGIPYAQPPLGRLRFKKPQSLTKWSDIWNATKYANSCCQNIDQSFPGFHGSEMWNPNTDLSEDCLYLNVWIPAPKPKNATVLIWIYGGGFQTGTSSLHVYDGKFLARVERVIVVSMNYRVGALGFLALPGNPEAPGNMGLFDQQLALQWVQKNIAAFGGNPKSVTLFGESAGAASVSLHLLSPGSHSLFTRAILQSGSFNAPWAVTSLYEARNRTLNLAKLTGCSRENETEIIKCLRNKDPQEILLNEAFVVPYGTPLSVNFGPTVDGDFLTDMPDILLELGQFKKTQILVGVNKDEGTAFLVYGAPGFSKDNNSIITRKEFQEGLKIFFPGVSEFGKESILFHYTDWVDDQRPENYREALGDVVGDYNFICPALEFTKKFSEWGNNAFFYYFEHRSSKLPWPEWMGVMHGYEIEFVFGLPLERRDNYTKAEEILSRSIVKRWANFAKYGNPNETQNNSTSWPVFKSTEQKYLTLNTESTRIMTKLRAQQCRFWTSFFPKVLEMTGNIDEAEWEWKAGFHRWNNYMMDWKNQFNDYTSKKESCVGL
pIC50: −log10 of the molar value.
measured-metric: pIC50

{"columns": ["line-notation", "target-or-system", "measured-metric", "measurement"],
 "data": [
  ["CC1=C(NC2CCN(Cc3ccccc3)CC2)C(=O)c2ccccc2C1=O", "Cholinesterase (Homo sapiens, UniProt P06276)", "pIC50", 7.02]
]}
